Molecular target: T1, human SEMA4D, full length, on CHO-K1 cells (CHO-K1 hSEMA4D) (human, UniProt Q92854 22-862)
T1 construct: whole, on cells; also called human SEMA4D recombinant cells
T1 sequence (looked up): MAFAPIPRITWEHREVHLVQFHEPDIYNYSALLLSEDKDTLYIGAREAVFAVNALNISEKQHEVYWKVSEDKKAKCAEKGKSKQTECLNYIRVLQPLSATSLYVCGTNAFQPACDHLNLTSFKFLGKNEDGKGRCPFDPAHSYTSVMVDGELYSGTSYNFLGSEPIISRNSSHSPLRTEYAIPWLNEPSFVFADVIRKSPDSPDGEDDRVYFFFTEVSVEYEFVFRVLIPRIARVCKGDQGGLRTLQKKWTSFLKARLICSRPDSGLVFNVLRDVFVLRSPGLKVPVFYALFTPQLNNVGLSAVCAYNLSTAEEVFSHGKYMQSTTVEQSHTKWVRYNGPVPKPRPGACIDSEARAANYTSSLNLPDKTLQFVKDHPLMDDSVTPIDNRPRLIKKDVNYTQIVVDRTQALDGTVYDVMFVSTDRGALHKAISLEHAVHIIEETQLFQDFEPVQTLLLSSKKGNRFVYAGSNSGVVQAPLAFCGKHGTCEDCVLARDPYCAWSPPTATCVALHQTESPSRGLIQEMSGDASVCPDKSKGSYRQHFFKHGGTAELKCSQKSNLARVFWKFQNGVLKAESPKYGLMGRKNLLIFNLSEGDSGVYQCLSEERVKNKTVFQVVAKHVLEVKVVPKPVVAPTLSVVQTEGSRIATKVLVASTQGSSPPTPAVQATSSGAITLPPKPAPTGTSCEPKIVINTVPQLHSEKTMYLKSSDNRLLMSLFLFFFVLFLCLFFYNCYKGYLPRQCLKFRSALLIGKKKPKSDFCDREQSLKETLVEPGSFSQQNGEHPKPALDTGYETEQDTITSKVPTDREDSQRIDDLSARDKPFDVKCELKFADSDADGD
Experiment: FACS, CHO-K1 hSEMA4D cells; Ab 0.0213 nM
Measured endpoint: MFI

[[record]]
binder = "31C11G2 (antibody, V domains shown, Mouse monoclonal antibody purified from hybridoma supernatant on protein A) VH: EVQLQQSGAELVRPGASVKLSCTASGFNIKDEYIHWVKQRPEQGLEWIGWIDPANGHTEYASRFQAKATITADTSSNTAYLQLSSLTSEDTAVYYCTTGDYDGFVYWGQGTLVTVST VL: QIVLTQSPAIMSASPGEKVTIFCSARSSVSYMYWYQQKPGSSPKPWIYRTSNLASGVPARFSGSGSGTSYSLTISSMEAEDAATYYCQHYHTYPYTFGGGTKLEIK"
measured_endpoint = "MFI"
numeric_value = 248

[[record]]
binder = "32C8F10 (antibody, V domains shown, Mouse monoclonal antibody purified from hybridoma supernatant on protein A) VH: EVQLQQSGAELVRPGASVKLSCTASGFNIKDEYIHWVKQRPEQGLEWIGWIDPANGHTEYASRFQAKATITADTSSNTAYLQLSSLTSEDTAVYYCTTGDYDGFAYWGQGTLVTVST VL: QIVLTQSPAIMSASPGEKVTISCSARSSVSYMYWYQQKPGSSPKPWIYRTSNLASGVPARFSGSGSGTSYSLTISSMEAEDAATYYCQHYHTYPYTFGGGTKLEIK"
measured_endpoint = "MFI"
numeric_value = 218

